assayComment: NCI Yeast Anticancer Drug Screen. Data for the CLN2oe strain (AID 163);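 also: 0% = growth of vehicle-only control cultures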
experimentalSetup: S. cerevisiae CLN2oe strain, at 100.0 µM
About 79,000 compounds went through this panel and 15% of them were active in at least one assay; those are over-represented in the sample as a whole. The source made the active and inactive calls. Rule as the data show it: active = growth inhibition above about 70%; inactive = the rest.
Output constraint: value belongs to active, inactive

As a guide, the following entries are already answered.
CS(=O)(=O)OCCN(CCOS(C)(=O)=O)c1ccc(C=Nc2ccc(-c3csc(COc4ccccc4)n3)cc2)cc1	active
C=C(Cl)COC(=O)Nc1cccc(Cl)c1	active
CCCCCCCCCCCCNC(C)=O	inactive
CC(C)OC(=O)c1ccc(CCc2cc(O)c(Br)cc2O)cc1	active
COc1ccc(N=CN(C)C)c(C)c1	active

(Q) Just curious, what result did "CCCCCCSc1ncnc2[nH]ncc12" get here?
(A) inactive

* * *

assayComment: NCI Yeast Anticancer Drug Screen. Data for the CLN2oe strain (AID 163);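 also: 0% = growth of vehicle-only control cultures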
experimentalSetup: S. cerevisiae CLN2oe strain, at 11.0 µM, stronger effect = higher value
About 79,000 compounds went through this panel and 15% of them were active in at least one assay; those are over-represented in the sample as a whole.
attributeMeasured: growth inhibition (%)
Please respond with the number in % and leave the unit unwritten.

Answered examples (6):
O=c1nc2n(Cc3ccccc3)c3ccccc3nc-2c(=O)[nH]1	3
CCOC(=O)/C(=C\c1ccc(C#N)cc1)C(C)=O	3
Oc1[nH]c2ccccc2c1N=NC(=S)N1CCCCC1	20
O=C(NNc1ccccc1)C(O)C(O)C(O)C(O)C(O)CO (configuration not stated)	22
CC1=C(SCc2ccccc2)C(=O)c2ccccc2C1=O	-27
Cc1c(C(C)C)cc(OCCO)cc1C(C)C	-4

With those in mind, consider the next compound.
(Q) Query: growth inhibition; subject: "CCN(CC)CCNc1ccc2ncn3c4cc(OC)c(OC)c(=O)c4c(O)c1c23"
(A) 0

* * *

assayComment: NCI Yeast Anticancer Drug Screen. Data for the rad50 strain (AID 155);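 also: 0% = growth of vehicle-only cultures of the same strain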
experimentalSetup: S. cerevisiae rad50 strain growth inhibition; at 50.0 µM (retest, dose inferred, filed as 5.0); stronger effect = higher value
Compounds without any hit were thinned out: in the full panel of roughly 79,000, 15% have a hit.
Label Condition met when growth inhibition >= 80%; otherwise Condition not met.

CN(C)/C=C/c1nnc([N+](=O)[O-])s1	Condition met
CCc1c(Cl)c(C)cc(O)c1Cl	Condition met
Nc1ccc(F)cc1S	Condition met
COc1cc(C2SCC(=O)N2c2ccc(-c3ccc(-n4c(-c5ccccc5)nc5ccccc5c4=O)cc3)cc2)ccc1O (stereo not drawn)	Condition not met
c1ccc(Cc2cc(-c3ccccc3)n[nH]2)cc1	Condition not met
NC1CCCCC1N.Nc1c(N=Nc2ccc(-c3ccc(N=Nc4cc(S(=O)(=O)[O-])c5ccccc5c4N)cc3)cc2)cc(S(=O)(=O)[O-])c2ccccc12.[OH3+].[OH3+].[Pt+4]	Condition met

(Q) Check the entry "NCCNCCNc1ccc(NCCNCCN)c2c1C(=O)c1c(O)ccc(O)c1C2=O" : does growth inhibition equal or exceed 80%?
(A) Condition not met

(Q) For "O/N=C\c1c(O)ccc2ccccc12" then?
(A) Condition not met

(Q) Subsequent entry: "CC(=O)Nc1ccc(/C=C/[N+](=O)[O-])cc1"
(A) Condition met

(Q) Same again, this time with "C[C](C)(C)[Ge]([O][Ge]([c]1ccccc1)[c]1ccccc1)([O][Ge]([c]1ccccc1)[c]1ccccc1)[C](C)(C)C"
(A) Condition not met

(Q) Try Nc1ccn(C2OC(COP(=O)(O)O)C(O)C2O)c(=O)n1 (stereo not drawn) next.
(A) Condition not met

(Q) What about this compound? "CCOC1=C/C(=N\Nc2ccc([N+](=O)[O-])cc2)CCC1"
(A) Condition not met

* * *

assayComment: NCI Yeast Anticancer Drug Screen. Data for the rad50 strain (AID 155);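 also: 0% = growth of vehicle-only cultures of the same strain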
experimentalSetup: S. cerevisiae rad50 strain growth inhibition; at 50.0 µM (retest, dose inferred, filed as 5.0)
Procedure: Growth inhibition of yeast strains with defined genetic alterations is measured as a screen for potential anti-cancer activity. Selected strains with alterations in DNA damage repair or cell cycle control were exposed to compounds and growth inhibition was measured relative to vehicle treated controls. The strain used in this assay is rad50
About 79,000 compounds went through this panel and 15% of them were active in at least one assay; those are over-represented in the sample as a whole. The source made the active and inactive calls. Cut-off read from the data, not from the text of the source: active = growth inhibition above about 70%; inactive = the rest.
Give one outcome, nothing more. List: active, inactive

Observe how each entry below is paired with its result.
O=c1ccc(=O)n(-c2ccccc2)[nH]1	active
CCCOC(=O)C(F)C(Br)C(=O)OCCC (stereo unspecified)	active
CN(C)CCNc1ccc2ncnc3c2c1C(=O)c1ccccc1-3	active
O=c1nc2n(Cc3ccccc3)c3ccccc3nc-2c(=O)[nH]1	inactive
O=[N+]([O-])c1cccc2nc3ccccc3c(NCCCn3ccnc3[N+](=O)[O-])c12	active

// switching to the query compound
(Q) Given "CCCCN(CCCC)C(=O)/C=C/c1ccccc1" , state the outcome it received in this test.
(A) active

* * *

assayComment: NCI Yeast Anticancer Drug Screen. Data for the rad50 strain (AID 155);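 also: 0% = growth of vehicle-only cultures of the same strain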
experimentalSetup: S. cerevisiae rad50 strain growth inhibition; at 1.2 µM; stronger effect = higher value
This is part of a sample that, as a whole, favours compounds with a hit. Of some 79,000 tested, about 15% had one in any assay.
attributeMeasured: growth inhibition (%)
Please state the figure in %; there is no need to write the unit.

(Q) I'd like to know its growth inhibition. The compound in question is "CNC(=O)OCc1c(COC(=O)NC)c(-c2ccc(Cl)cc2)n2c1CCC2"
(A) -34

(Q) Another: "Cc1cc2cc3cc(C)c(N)cc3nc2cc1N"
(A) -9

(Q) How about "CN(C)CCCCN1c2ccccc2Sc2ccc(N=[N+]=[N-])cc21" ?
(A) 6

(Q) Record: "Oc1ccc(-c2nc(-c3ccc(F)cc3)c(-c3ccc4ccccc4n3)[nH]2)cc1"
(A) -31

(Q) And then CCCCNC1CCC2(SCCS2)c2[nH]c3ccccc3c21 (stereo not drawn) , what is it?
(A) 2

(Q) Can you handle "Nc1ccc2c(c1)C(=O)c1ccc(F)cc1-2" next?
(A) 16

(Q) Field entry: "Cc1ccc2c3ccc4c(c3n(C)c2c1)C(=O)C=CC4=O"
(A) -4

(Q) How about "CC(C)OC(=O)c1ccc(CCc2cc(O)c(Br)cc2O)cc1" ?
(A) 34

* * *

Listed here: items and their measured growth inhibition.
assayComment: NCI Yeast Anticancer Drug Screen. Data for the mec2-1 strain (AID 157)
experimentalSetup: S. cerevisiae mec2-1 strain, at 3.7 µM, stronger effect = higher value
Experimental: Growth inhibition of yeast strains with defined genetic alterations is measured as a screen for potential anti-cancer activity. Selected strains with alterations in DNA damage repair or cell cycle control were exposed to compounds and growth inhibition was measured relative to vehicle treated controls. The strain used in this assay is mec2-1
The panel holds about 79,000 compounds, 15% with a hit somewhere; the sample as a whole holds those more often.
A number alone suffices; assume %.

C[C@@](O)(/C=C/[C@H]1CC=CC(=O)O1)[C@@H](C[C@@H](O)\C=C/C=C\C=C\CO)OP(=O)(O)O	22

(Q) # lookup: growth inhibition of "S=C1SCN(C2CCCCC2)CN1C1CCCCC1"
(A) -78

(Q) // next record "C[C](C)(C)[Ge]([O][Ge]([c]1ccccc1)[c]1ccccc1)([O][Ge]([c]1ccccc1)[c]1ccccc1)[C](C)(C)C"
(A) 21

(Q) Likewise for CC(C)(C)[Si](C)(C)OCC1CCC(n2cnc3c(NC(=O)c4ccccc4)ncnc32)O1 (configuration not stated) ?
(A) 0

(Q) Note, next up: CC1CC[C@]2(C(=O)O)CCC3(C)C(=CC(=O)C4[C@@]5(C)CCC(=O)C(C)(C)C5CC[C@]43C)[C@@H]2[C@H]1C (some centres not stated)
(A) 38

* * *

assayComment: NCI Yeast Anticancer Drug Screen. Data for the rad50 strain (AID 155);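 also: 0% = growth of vehicle-only cultures of the same strain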
experimentalSetup: S. cerevisiae rad50 strain growth inhibition; at 5.0 µM (retest, dose inferred, filed as 0.5)
The panel holds about 79,000 compounds, 15% with a hit somewhere; the sample as a whole holds those more often. Activity calls are given as the source filed them. No stated cut-off is given here; in the data, active means growth inhibition above about 70%; inactive means the rest.
Just give me one of these, please: active, inactive

# example entries with known answers
O=C(NCCCNCCN1C(=O)c2cccc3cc([N+](=O)[O-])cc(c23)C1=O)c1cc(-c2ccccc2)nc2ccccc12	inactive
COc1cc2cc3c4cc(OC)c(OC)cc4cc[n+]3c(C)c2cc1OC	inactive
O=C1NC(SSC2=NNC3(C(=O)N2)c2ccccc2-c2ccccc23)=NNC12c1ccccc1-c1ccccc12	inactive
Cc1c(C)c(C)c(CSC(=N)N)c(C)c1C	inactive
O=C(O)c1cc2ccccc2c2c1C(=O)c1ccccc1-2	inactive

(Q) # fetch the recorded call for "Cc1cc(C)c(NC(=S)NC(=O)c2ccccc2)cc1C" here
(A) inactive

(Q) Try the compound C=C1CC(CCCl)(c2ccccc2)OC1=O (stereo not given)
(A) inactive

(Q) What would you report for "C/C=C/SC(=Nc1ccccc1)Nc1ccccc1" ?
(A) inactive

(Q) Now this one: "CCN(CC)CCNc1ccc2ncn3c4cc(OC)c(OC)c(=O)c4c(O)c1c23"
(A) inactive

(Q) Same again, this time with "NC(N)=NS(=O)(=O)c1ccc(Nc2c3ccccc3nc3c(C(=O)NCCO)cccc23)cc1"
(A) inactive

(Q) Try "CCN(CC)CCNc1ccc([N+](=O)[O-])c2nc3ccccc3c(N)c12" next.
(A) inactive

(Q) Thanks! And "CCOC(=O)C(C(=O)OCC)=P(c1ccccc1)(c1ccccc1)c1ccccc1" ?
(A) inactive

(Q) Next up: O=C1OC(C2=CC(=O)c3ccccc3C2=O)C(Cl)=C1Cl (stereo not given)
(A) inactive
